# Assay: Volume of distribution at steady state in iv dosed rat
# Format: ADME, organism-based
# Assay setup: in vivo, read-out: Vdss
Vd listing for selected molecules.
Write the numeric value and follow it with the unit.

response.value for COC(=O)N[C@H](C(=O)N1C[C@@H](C)C[C@H]1c1cc2ccc(-c3cc4sc(-c5ccc6[nH]c([C@@H]7C[C@H](C)CN7C(=O)[C@@H](NC(=O)OC)C(C)C)nc6c5)cc4s3)cc2[nH]1)C(C)C (field: Vd) = 1.6 L/kg

response.value for COC(=O)N[C@H](C(=O)N1C[C@@H](C)C[C@H]1c1nc2cc(-c3cc4sc(-c5ccc6nc([C@@H]7C[C@H](C)CN7C(=O)[C@@H](NC(=O)OC)C(C)C)oc6c5)cc4s3)ccc2[nH]1)C(C)C (field: Vd) = 2.8 L/kg

Next, consider the following molecule.
response.value for COC(=O)N[C@H](C(=O)N1C[C@@H](C)C[C@H]1c1ncc(-c2ccc(-c3cc4sc(-c5ccc6[nH]c([C@@H]7C[C@H](C)CN7C(=O)[C@@H](NC(=O)OC)C(C)C)nc6c5)cc4s3)cc2)[nH]1)C(C)C (field: Vd) = 1.6 L/kg
